- Tested on: NCI/ADR-RES
- experimental-protocol: Growth inhibition of human NCI/ADR-RES cells incubated for 48 hrs by sulforhodamine B assay
- Assay type: functional
- protocol-conditions: read-out: TGI
So I've got a bunch of compounds here, and I need their TGI values.
Form entry: value (µM) — number only.

Measured TGI, `Fc1ccc(-c2nc(Nc3ccc(-c4nc5ccccc5[nH]4)cc3)nc(N3CCOCC3)n2)cc1` : 26.7

// TGI lookup, compound = `c1ccc2[nH]c(-c3ccc(Nc4nc(N5CCCCC5)nc(N5CCOCC5)n4)cc3)nc2c1` , result: 55.2

Per the records, this compound ( `Clc1ccc(-c2nc(Nc3ccc(-c4nc5ccccc5[nH]4)cc3)nc(N3CCOCC3)n2)cc1` ) has TGI equal to 2.19

Looking up `c1ccc(-c2nc(Nc3ccc(-c4nc5ccccc5[nH]4)cc3)nc(N3CCOCC3)n2)cc1` , I see its TGI listed as 5.53

====

- Test system: MDA-MB-435
- experimental-protocol: Growth inhibition of human MDA-MB-435 cells incubated for 48 hrs by sulforhodamine B assay
- Format: functional
- protocol-conditions: MDA-MB-435, 48 h, read-out: pGI50 (converted)
result-type: GI50 (nM)
Number in nM, nothing else.

Short answer for `c1ccc(-c2nc(Nc3ccc(-c4nc5ccccc5[nH]4)cc3)nc(N3CCOCC3)n2)cc1` : GI50 was 1780

Looking up `Fc1ccc(-c2nc(Nc3ccc(-c4nc5ccccc5[nH]4)cc3)nc(N3CCOCC3)n2)cc1` , I see its GI50 listed as 1950

For reference, reported GI50 for `c1ccc2[nH]c(-c3ccc(Nc4nc(N5CCCCC5)nc(N5CCOCC5)n4)cc3)nc2c1` stands at 2040

The value of GI50 measured for the molecule `Clc1ccc(-c2nc(Nc3ccc(-c4nc5ccccc5[nH]4)cc3)nc(N3CCOCC3)n2)cc1` turned out to be 603

====

Please respond with reported growth at 100 µM for every item in the list.
- experimental-protocol: Growth inhibition of human SKOV3 cells assessed as cell growth at 10^-4 M incubated for 48 hrs by sulforhodamine B assay
- Type: functional
- protocol-conditions: SK-OV-3, 48 h, read-out: Activity
Just the number please, in %, no unit attached.

Recorded result, `c1ccc2[nH]c(-c3ccc(Nc4nc(N5CCCCC5)nc(N5CCOCC5)n4)cc3)nc2c1` , growth at 100 µM: -67

Measured growth at 100 µM, `Clc1ccc(-c2nc(Nc3ccc(-c4nc5ccccc5[nH]4)cc3)nc(N3CCOCC3)n2)cc1` : -50

Value of growth at 100 µM reported for the molecule `Fc1ccc(-c2nc(Nc3ccc(-c4nc5ccccc5[nH]4)cc3)nc(N3CCOCC3)n2)cc1` is -49

For this molecule ( `c1ccc(-c2nc(Nc3ccc(-c4nc5ccccc5[nH]4)cc3)nc(N3CCOCC3)n2)cc1` ), measured growth at 100 µM is -100

====

- experimental-protocol: Growth inhibition of human RPMI8226 cells assessed as cell growth at 10^-8 M incubated for 48 hrs by sulforhodamine B assay
- Assay type: functional
- protocol-conditions: RPMI-8226, 48 h, read-out: Activity
result-type: growth at 0.01 µM (%)
Answer with a number only, understood to be in %.

Value of measured growth at 0.01 µM for the entry `c1ccc(-c2nc(Nc3ccc(-c4nc5ccccc5[nH]4)cc3)nc(N3CCOCC3)n2)cc1` : 100

Sample `c1ccc2[nH]c(-c3ccc(Nc4nc(N5CCCCC5)nc(N5CCOCC5)n4)cc3)nc2c1` ; growth at 0.01 µM observed: 97

Reported growth at 0.01 µM of `Fc1ccc(-c2nc(Nc3ccc(-c4nc5ccccc5[nH]4)cc3)nc(N3CCOCC3)n2)cc1` : 100

Noted for `Clc1ccc(-c2nc(Nc3ccc(-c4nc5ccccc5[nH]4)cc3)nc(N3CCOCC3)n2)cc1` : its growth at 0.01 µM reads 100

====

- Tested on: MCF7
- experimental-protocol: Growth inhibition of human MCF7 cells incubated for 48 hrs by sulforhodamine B assay
- Assay type: functional
- protocol-conditions: MCF7, 48 h, read-out: GI50
Provide the reported GI50 of each item.
Only the number, expressed in nM, is required.

Given item `c1ccc(-c2nc(Nc3ccc(-c4nc5ccccc5[nH]4)cc3)nc(N3CCOCC3)n2)cc1` , the value recorded as its GI50 is 877

Documented GI50 of `c1ccc2[nH]c(-c3ccc(Nc4nc(N5CCCCC5)nc(N5CCOCC5)n4)cc3)nc2c1` : 2400

The reported value for `Fc1ccc(-c2nc(Nc3ccc(-c4nc5ccccc5[nH]4)cc3)nc(N3CCOCC3)n2)cc1` in terms of GI50 is 2590

For this compound ( `Clc1ccc(-c2nc(Nc3ccc(-c4nc5ccccc5[nH]4)cc3)nc(N3CCOCC3)n2)cc1` ), measured GI50 is 194

====

- System: A498
- experimental-protocol: Growth inhibition of human A498 cells incubated for 48 hrs by sulforhodamine B assay
- Assay type: functional
- protocol-conditions: A498, 48 h, read-out: pTGI (converted)
For each of the compounds below, state its TGI.
Express your answer in µM, writing the number without its unit.

What the record says about `c1ccc(-c2nc(Nc3ccc(-c4nc5ccccc5[nH]4)cc3)nc(N3CCOCC3)n2)cc1` : TGI is 2.63

Looking up `Clc1ccc(-c2nc(Nc3ccc(-c4nc5ccccc5[nH]4)cc3)nc(N3CCOCC3)n2)cc1` , I found its TGI recorded as 3.31

Reported TGI of `Fc1ccc(-c2nc(Nc3ccc(-c4nc5ccccc5[nH]4)cc3)nc(N3CCOCC3)n2)cc1` : 3.55

Looking up `c1ccc2[nH]c(-c3ccc(Nc4nc(N5CCCCC5)nc(N5CCOCC5)n4)cc3)nc2c1` , I found its TGI recorded as 4.17

====

Consider the following compounds; for each one, report its growth at 0.1 µM.
- experimental-protocol: Growth inhibition of human OVCAR5 cells assessed as cell growth at 10^-7 M incubated for 48 hrs by sulforhodamine B assay
- Format: functional
- protocol-conditions: OVCAR-5, 48 h, read-out: Activity
Entry rule: numbers only, all in %.

// growth at 0.1 µM lookup, compound = `c1ccc2[nH]c(-c3ccc(Nc4nc(N5CCCCC5)nc(N5CCOCC5)n4)cc3)nc2c1` , result: 100

The value of growth at 0.1 µM measured for the compound `Fc1ccc(-c2nc(Nc3ccc(-c4nc5ccccc5[nH]4)cc3)nc(N3CCOCC3)n2)cc1` turned out to be 83

Please fill in: growth at 0.1 µM reported for `c1ccc(-c2nc(Nc3ccc(-c4nc5ccccc5[nH]4)cc3)nc(N3CCOCC3)n2)cc1` = 99

Just so you know, measured growth at 0.1 µM for `Clc1ccc(-c2nc(Nc3ccc(-c4nc5ccccc5[nH]4)cc3)nc(N3CCOCC3)n2)cc1` came out at 92

====

Would you mind telling me the reported growth at 1 µM of each entry?
- experimental-protocol: Growth inhibition of human TK10 cells assessed as cell growth at 10^-6 M incubated for 48 hrs by sulforhodamine B assay
- Format: functional
- protocol-conditions: TK-10, 48 h, read-out: Activity
Dear colleague, please return just the value in %, with no unit written.

Per the record, `Clc1ccc(-c2nc(Nc3ccc(-c4nc5ccccc5[nH]4)cc3)nc(N3CCOCC3)n2)cc1` has growth at 1 µM of 110

The molecule `c1ccc2[nH]c(-c3ccc(Nc4nc(N5CCCCC5)nc(N5CCOCC5)n4)cc3)nc2c1` showed growth at 1 µM equal to 105

Record `Fc1ccc(-c2nc(Nc3ccc(-c4nc5ccccc5[nH]4)cc3)nc(N3CCOCC3)n2)cc1` . Reported growth at 1 µM: 100

Memo: `c1ccc(-c2nc(Nc3ccc(-c4nc5ccccc5[nH]4)cc3)nc(N3CCOCC3)n2)cc1` , reported growth at 1 µM: 119

====

- experimental-protocol: Growth inhibition of human OVCAR4 cells assessed as cell growth at 10^-8 M incubated for 48 hrs by sulforhodamine B assay
- Assay type: functional
- protocol-conditions: OVCAR-4, 48 h, read-out: Activity
result-type: growth at 0.01 µM (%)
The figure you give is taken to be in %; do not add the unit.

The measured growth at 0.01 µM associated with `Fc1ccc(-c2nc(Nc3ccc(-c4nc5ccccc5[nH]4)cc3)nc(N3CCOCC3)n2)cc1` reads 99

Record `c1ccc2[nH]c(-c3ccc(Nc4nc(N5CCCCC5)nc(N5CCOCC5)n4)cc3)nc2c1` , field growth at 0.01 µM: 101

Measured growth at 0.01 µM, `c1ccc(-c2nc(Nc3ccc(-c4nc5ccccc5[nH]4)cc3)nc(N3CCOCC3)n2)cc1` : 104

`Clc1ccc(-c2nc(Nc3ccc(-c4nc5ccccc5[nH]4)cc3)nc(N3CCOCC3)n2)cc1` has a reported growth at 0.01 µM of 103

====

Kindly supply the reported growth at 0.01 µM values for the records listed here.
- Tested on: SN12C
- experimental-protocol: Growth inhibition of human SN12C cells assessed as cell growth at 10^-8 M incubated for 48 hrs by sulforhodamine B assay
- Assay type: functional
- protocol-conditions: read-out: Activity
Form field: result (number plus unit)

So for `c1ccc2[nH]c(-c3ccc(Nc4nc(N5CCCCC5)nc(N5CCOCC5)n4)cc3)nc2c1` , the logged growth at 0.01 µM turned out to be 95%

Reported growth at 0.01 µM ( `Fc1ccc(-c2nc(Nc3ccc(-c4nc5ccccc5[nH]4)cc3)nc(N3CCOCC3)n2)cc1` ) = 95%

So, `c1ccc(-c2nc(Nc3ccc(-c4nc5ccccc5[nH]4)cc3)nc(N3CCOCC3)n2)cc1` ? Its growth at 0.01 µM was 96%

For record `Clc1ccc(-c2nc(Nc3ccc(-c4nc5ccccc5[nH]4)cc3)nc(N3CCOCC3)n2)cc1` the listed growth at 0.01 µM is 95%
